target: Alpha-2C adrenergic receptor (Homo sapiens); format: functional; note: assay procedure not described here
Sequence (P18825 whole entry): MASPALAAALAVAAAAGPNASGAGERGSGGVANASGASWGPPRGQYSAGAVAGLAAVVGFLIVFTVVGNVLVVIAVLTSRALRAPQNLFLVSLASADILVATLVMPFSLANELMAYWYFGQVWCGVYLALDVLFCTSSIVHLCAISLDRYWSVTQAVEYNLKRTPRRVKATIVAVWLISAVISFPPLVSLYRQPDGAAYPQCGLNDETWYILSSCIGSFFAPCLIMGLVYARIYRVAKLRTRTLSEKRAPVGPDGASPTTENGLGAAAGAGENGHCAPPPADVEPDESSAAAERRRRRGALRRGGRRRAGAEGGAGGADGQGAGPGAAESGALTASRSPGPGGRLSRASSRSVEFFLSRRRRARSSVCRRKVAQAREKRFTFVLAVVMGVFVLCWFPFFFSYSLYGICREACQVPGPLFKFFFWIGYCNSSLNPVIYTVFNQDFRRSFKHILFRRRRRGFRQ
parameter measured: AC50

Prompt: Form field - read-out: AC50; system: Alpha-2C adrenergic receptor (Homo sapiens); submitted item: Nc1cc(-c2ccncc2)c[nH]c1=O [INAMRINONE]; note: assay procedure not described here
Completion: > 10 µM

Prompt: Form field - read-out: AC50; system: Alpha-2C adrenergic receptor (Homo sapiens); submitted item: NC(=O)CN1CCCC1=O; note: assay procedure not described here
Completion: > 30 µM

Prompt: Form field - read-out: AC50; system: Alpha-2C adrenergic receptor (Homo sapiens); submitted item: CCN(CC)CCNC(=O)c1cc(S(C)(=O)=O)ccc1OC [TIAPRIDE]; note: assay procedure not described here
Completion: > 30 µM

Prompt: Form field - read-out: AC50; system: Alpha-2C adrenergic receptor (Homo sapiens); submitted item: CN(C)CC[C@@H](c1ccc(Cl)cc1)c1ccccn1 [DEXCHLORPHENIRAMINE]; note: assay procedure not described here
Completion: > 30 µM

Prompt: Form field - read-out: AC50; system: Alpha-2C adrenergic receptor (Homo sapiens); submitted item: CC(C)N(CCC(C(N)=O)(c1ccccc1)c1ccccn1)C(C)C (stereo not given) [DISOPYRAMIDE]; note: assay procedure not described here
Completion: > 10 µM
